target: SARS-CoV-2 Spike on wild-type pseudotyped virus (PsV) (SARS-CoV-2, UniProt P0DTC2 14-1273); experiment: cell-based or functional assay
Parameter: IC50 SARS-CoV2 PsV (IgG)

The examples below pair each entry with its known result.
mAb 180 (antibody, V domains shown) VH: QVQLVQSGAEVKKPGSSVKVSCKASGYTFTSYAMHWVRQAPGQGLEWMGRISPRSGGTKYAQRFQGRVTITADESTSTAYMELSSLRSEDTAVYYCAREAVAGTHPQAGDFDLWGRGTLVTVSS VL: DIVMTQSPLSLPVTPGEPASISCRSSQSLLHSNGYNYLDWYLQKPGQSPQLLIYAASSLQSGVPDRFSGSGSGTDFTLKISRVEAEDVGVYYCQQYYSSPYTFGQGTKLEIKR :: > 50 µg/mL
mAb 349 (antibody, V domains shown, also called IgG 349; Antibody 349) VH: EVQLLESGGGLVQPGGSLRLSCAASGFTFSNYGMHWVRQAPGKGLEWVSGISSAGSITNYADSVKGRFTISRDNSKNTLYLQMNSLRAEDTAVYYCAGNHAGTTVTSEYFQHWGQGTLVTVSS VL: DIQMTQSPSSLSASVGDRVTITCRASQSISSWLAWYQQKPGKAPKLLIYDTSNLETGVPSRFSGSGSGTDFTLTISSLQPEDFATYYCQQSYTTPWTFGQGTRLEIKR :: > 50 µg/mL

Moving on to another binder below.
stdin: Quick one: IC50 SARS-CoV2 PsV (IgG) for mAb 128 (antibody, V domains shown) VH: QVQLVQSGAEVKKPGASVKVSCKASGYTFTHYYMHWVRQAPGQGLEWMGIINPSSSSASYSQKFQGRVTMTRDTSTSTVYMELSSLRSEDTAVYYCARDGRYGSGSYPFDYWGQGTLVTVSS VL: DIQMTQSPSSLSASVGDRVTITCRASQNISRYLNWYQQKPGKAPKLLIYDASNLETGVPSRFSGSGSGTDFTLTISSLQPEDFATYYCQQANGFPPTFGQGTKLEIKR ?
stdout: > 50 µg/mL

Values compiled from patent US20250002564A1.
